Test: chemical genetic growth profiling, strain panel (AID 1159580);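 note: tested at 20 µM; growth read once vehicle control cultures reached saturation at 30 °C; 1 = growth at the plate median or of vehicle wells; lower values mean less growth of the strain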
Conditions: S. cerevisiae deletion strains, growth OD, locus YMR231W, strain pep5, hits give low values
The campaign covered roughly 5,500 compounds. About 2,000 (36%) were called active. Roughly 18% stayed inconclusive and do not appear here. Some of the results follow.
MEASURE NAME: normalized growth
Respond using a number only.

Measured normalized growth, COc1c(N2CCNC(C)C2)c(F)cc2c(=O)c(C(=O)O)cn(C3CC3)c12 (stereo unspecified) : 0.993

Measured normalized growth, COc1cc(CNC(=O)CCCC/C=C/C(C)C)ccc1O : 1

Measured normalized growth, COc1ccc([C@H]2Oc3c(I)c(OC)cc(OC)c3C[C@@H]2O)cc1OC : 1

Measured normalized growth, CCCc1cc(C(N)=S)ccn1 : 0.967

Measured normalized growth, O=C(O[C@@H]1Cc2c(O)cc(O)cc2O[C@@H]1c1cc(O)c(O)c(O)c1)c1cc(O)c(O)c(O)c1 : 0.496

Measured normalized growth, C[C@H]1COc2c(N3CCN(C)CC3)c(F)cc3c(=O)c(C(=O)O)cn1c23 : 1.03

Measured normalized growth, Oc1cc(O)c2c(c1)O[C@H](c1ccc(O)c(O)c1)[C@@H](O)C2 : 1

Measured normalized growth, N=c1ccn2c(n1)OC1C(O)C(CO)OC12 (stereo unspecified) : 1.01

Measured normalized growth, C#CCCCCCCCCCCCc1ccco1 : 0.993

Measured normalized growth, O=C(O)CCCc1ccccc1 : 0.985

Measured normalized growth, C[n+]1c2cc(N)ccc2cc2ccc(N)cc21 : 0.945

Measured normalized growth, N[C@@H](Cc1ccc(N(CCCl)CCCl)cc1)C(=O)O : 0.987

Measured normalized growth, O=C(O)c1cc2cc(F)ccc2[nH]1 : 0.992

Measured normalized growth, CN(C)CCOC(c1ccc(Cl)cc1)c1ccccn1 (stereo unspecified) : 1.03

Measured normalized growth, O=C1CCC(N2C(=O)c3ccccc3C2=O)C(=O)N1 (stereo unspecified) : 1.01

Measured normalized growth, CCCCCCCCC(=O)NCc1ccc(O)c(OC)c1 : 1.01

Measured normalized growth, CCN1CCCC(OC(=O)C(c2ccccc2)c2ccccc2)C1 (stereo unspecified) : 0.998

Measured normalized growth, O=C(c1ccc(OCCN2CCCCC2)cc1)c1c(-c2ccc(O)cc2)sc2cc(O)ccc12 : 1.03

Measured normalized growth, CC(C)NCC(O)COc1cccc2[nH]ccc12 (stereo unspecified) : 0.984

Measured normalized growth, C=CCc1ccc(O)c(OC)c1 : 0.983

Measured normalized growth, NS(=O)(=O)c1cc2c(cc1Cl)NC=NS2(=O)=O : 0.999

Measured normalized growth, CCC[C@H](N[C@@H](C)C(=O)N1[C@H](C(=O)O)C[C@@H]2CCCC[C@@H]21)C(=O)OCC : 1.02

Measured normalized growth, CC(=O)O[C@H]1C[C@@H](OC(C)=O)C(C)(C)C2CC(=O)[C@]3(C)C(CC[C@@]4(C)[C@H](C(=O)O)OC(=O)C5OC543)[C@]21C (stereo partly specified) : 0.991

Measured normalized growth, O=C1NCC2(CCN(CCc3ccccc3)CC2)O1 : 0.994

Measured normalized growth, C=CCCCCCCCCCCCc1ccco1 : 0.997

Measured normalized growth, Cc1ncc(CNC(=O)N(CCCl)N=O)c(N)n1 : 1

Measured normalized growth, Oc1ccc2c(c1)O[C@H](c1ccc(O)c(O)c1)[C@@H](O)C2 : 1.01

Measured normalized growth, C=C1CCC2[C@](C)(CO)[C@H](O)CC[C@@]2(C)[C@@H]1C/C=C1/C(=O)OC[C@H]1O (stereo partly specified) : 0.997

Measured normalized growth, c1ccc2c(c1)CCCC2C1=NCCN1 (stereo unspecified) : 1.02

Measured normalized growth, CC1COc2c(N3CCN(C)CC3)c(F)cc3c(=O)c(C(=O)O)cn1c23 (stereo unspecified) : 0.981

Measured normalized growth, CC(=O)Oc1cc(OC(C)=O)c2c(c1)O[C@H](c1ccc(OC(C)=O)c(OC(C)=O)c1)[C@@H](OC(C)=O)C2 : 1

Measured normalized growth, O=C(O)CCCc1ccc(N(CCCl)CCCl)cc1 : 0.981

Measured normalized growth, O=C1C(Cl)=C(Cl)C(=O)C(Cl)=C1Cl : 0.971

Measured normalized growth, Cn1c(=O)c2c(ncn2CC(O)CO)n(C)c1=O (stereo unspecified) : 0.97

Measured normalized growth, NCCc1cnc[nH]1 : 1.01

Measured normalized growth, COc1ccc(OC)c(C(O)CNC(=O)CN)c1 (stereo unspecified) : 1.02
